The values you see were collected from patent US20240246984A1.

experiment: Pharmacokinetic assay in mice (plasma and colon exposure); assay type: in vivo; conditions: mouse; fed female C57 mice, 25 mg/kg PO, 4 hours after dosing, colon homogenate; read-out: Colon exposure
Is concentration at 4 h at least 4000 ng/g? Then yes. If not, no.

Check the entry O=C(c1ccc(Nc2nc(-c3c(F)cccc3F)n3cc[nH]c(=O)c23)cc1)N1CCOCC1 : does concentration at 4 h equal or exceed 4000 ng/g?
yes

Is concentration at 4 h for CC(C)(C(N)=O)c1ccc(Nc2nc(-c3c(F)cccc3F)n3cc[nH]c(=O)c23)cc1 at or above 4000 ng/g?
no

Has CC(C)(C(=O)N1CCNCC1)c1ccc(Nc2nc(-c3c(F)cccc3F)n3cc[nH]c(=O)c23)cc1 a recorded concentration at 4 h greater than or equal to 4000 ng/g?
yes

Answer whether concentration at 4 h of O=C(c1ccc(Nc2nc(-c3c(F)cccc3F)n3cc[nH]c(=O)c23)cc1)N1CCNCC1 is greater than or equal to 4000 ng/g.
yes

For this compound, is measured concentration at 4 h 4000 ng/g or higher? NC(=O)c1ccc(Nc2nc(-c3c(F)cccc3Cl)n3cc[nH]c(=O)c23)cc1
no
